- targetOrSystem: OSR1 CCT domain (residues 429-527) (human, UniProt O95747 429-527)
- Sequence (O95747 429-527): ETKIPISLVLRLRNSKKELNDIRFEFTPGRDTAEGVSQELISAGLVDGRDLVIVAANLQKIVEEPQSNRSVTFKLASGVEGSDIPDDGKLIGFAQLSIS
- measurementDescription: SPR
pKd: −log10 of the molar value. Ends that are not written are not given here. * marks the point of attachment. Biotin = O=C1N[C@H]2[C@H](CS[C@H]2CCCCC(=O)*)N1
valueKind: pKd

Q: Name the reported pKd value associated with the binder Biotin-AGRRFIVSPVPESRL [biotinylated peptide encompassing Ser1261 of WNK1 (biotin-AGRRFIVSPVPESRL)]
Result: ~7.40
